Tested on: Rattus norvegicus
Assay: Antinociceptive activity in Sprague-Dawley rat mononeuropathy pain model assessed as increase in injured paw pressure at 30 mg/kg, po after 45 mins by paw pressure test relative to non-treated control
Type: functional
metric-name: Activity (g)

• CCCCCOc1ccc2c(c1)n1ncc(I)c1n[n+]2[O-] = 34.2
• [O-][n+]1nc2c(I)cnn2c2cc(OCc3ccccc3)ccc21 = 36.4
• [O-][n+]1nc2c(I)cnn2c2cc(NCc3ccccc3)ccc21 = 38.1
• Cc1cnn2c1n[n+]([O-])c1ccc(NCc3ccccc3)cc12 = 28.5
• Cc1cnn2c1n[n+]([O-])c1ccc(OCc3ccccc3)cc12 = 35.2
• O=C(OCc1cccs1)c1cnn2c1n[n+]([O-])c1ccc(Cl)cc12 = 32.8
• CC(COc1ccc2c(c1)n1ncc(I)c1n[n+]2[O-])c1ccccc1 (racemic) = 39
• CN(Cc1ccccc1)c1ccc2c(c1)n1ncc(I)c1n[n+]2[O-] = 28.5
• O=C(c1cccs1)c1cnn2c1n[n+]([O-])c1ccc(Oc3ccccc3)cc12 = 43.2
